tested on: Nanoluciferase (engineered Oplophorus gracilirostris luciferase); assay: Primary Nanoluciferase (NLuc) qHTS assay for identification of artifact compounds. (AID 1845222); conditions: NLuc-conditioned medium, Nano-Glo luminescence, 5 min; series mostly up to 54.1 µM;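 further: NLuc secreted into diluted conditioned medium of S16 cells; 0% = DMSO and -100% = no enzyme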
The source made the active and inactive calls. The call rests on the fitted dose curve; in most records, active means well fitted inhibition curve with a large enough effect; inconclusive means small, poorly fitted or top-dose-only effect; inactive means flat fitted curve, though single readings scatter.
measured_property: activity, negative = inhibition

- molecule: "CC(=O)N[C@H]1[C@H](O[C@H]2CC[C@]3(C)C4CC=C5[C@@H]6CC(C)(C)CC[C@]6(C(=O)O)[C@H](O)C[C@@]5(C)[C@]4(C)CC[C@H]3C2(C)C)O[C@H](CO)[C@@H](O)[C@@H]1O (stereo not given in full)"
  measured_property: "activity, negative = inhibition"
  assay_value: "inactive"
- molecule: "COc1cc(C)c(C(=O)OC2C(C)OC(OC3CCC(C)C4C3C=C(C)C3/C(C)=C\\CC/C(C)=C/C5(C)C=C(C(=O)O)C(C)CC56OC(=O)/C(=C(\\O)C34C)C6=O)C(O)C2O)c(OC)c1 (stereo not given)"
  measured_property: "activity, negative = inhibition"
  assay_value: "4.78% [at 11.6 µM] (inactive)"
- molecule: "CC(=O)c1ccc(O[C@@H]2O[C@H](CO[C@@H]3OC[C@@H](O)[C@H](O)[C@H]3O)[C@@H](O)[C@H](O)[C@H]2O)cc1"
  measured_property: "activity, negative = inhibition"
  assay_value: "inactive"
- molecule: "O=C(CC1CC(c2ccc(F)cc2F)=NO1)N1CCOCC1 (stereo not given)"
  measured_property: "activity, negative = inhibition"
  assay_value: "inactive"
- molecule: "CC(C)C[C@H](NC(=O)[C@@H]1O[C@H]1C(=O)O)C(=O)NCCCCN=C(N)N"
  measured_property: "activity, negative = inhibition"
  assay_value: "inactive"
- molecule: "C=C(CO)C(=O)O[C@H]1C[C@@]23O[C@@H]2CC/C(=C/[C@H]2OC(=O)C(=C)[C@H]12)CO[C@H]3O"
  measured_property: "activity, negative = inhibition"
  assay_value: "inactive"
- molecule: "CC1OC(OC2C(OC3C(O[C@H]4CC[C@@]5(C)C(CC[C@]6(C)C5CC=C5C7CC(C)(C)CC(O)[C@]7(C)CC[C@]56C)C4(C)C)OC(C(=O)O)C(O)C3O)OCC(O)C2O)C(O)C(O)C1O (stereo not given in full)"
  measured_property: "activity, negative = inhibition"
  assay_value: "4.85% [at 11.6 µM] (inactive)"
- molecule: "CC1=C(CCC(C)O[C@@H]2O[C@H](CO)[C@@H](O)[C@H](O)[C@H]2O)C(C)(C)CC(O)C1 (stereo not given in full)"
  measured_property: "activity, negative = inhibition"
  assay_value: "inactive"
- molecule: "Cc1ccccc1N1CCN(S(=O)(=O)C[C@]23CC[C@H](C[C@@H]2NC(=O)[C@@H](N)CCS(C)(=O)=O)C3(C)C)CC1"
  measured_property: "activity, negative = inhibition"
  assay_value: "inactive"
- molecule: "CC(NC(=O)[C@H](Cc1ccccc1)NC(=O)OCc1ccccc1)C(=O)CF (stereo not given in full)"
  measured_property: "activity, negative = inhibition"
  assay_value: "inactive"
- molecule: "C=C1CCC2(C(=O)OC3OC(CO)C(O)C(O)C3O)CCC3(C)C(=CCC4C5(C)CCC(OC6OC(CO)C(OC7OC(C)C(O)C(O)C7O)C(OC7OCC(O)C(O)C7O)C6O)C(C)(C)C5CCC43C)C2C1 (stereo not given)"
  measured_property: "activity, negative = inhibition"
  assay_value: "0.389% [at 11.6 µM] (inactive)"
- molecule: "COc1cc(O)cc2c1C(=O)OC(C)CCCCCCC2 (stereo not given)"
  measured_property: "activity, negative = inhibition"
  assay_value: "inactive"
- molecule: "COc1cc(/C=C/C(=O)OC[C@H]2O[C@@H](OC3CC(C)=C(C(=O)O)C(C)(C)C3)[C@H](O)[C@@H](O)[C@@H]2O)cc(OC)c1O (stereo not given in full)"
  measured_property: "activity, negative = inhibition"
  assay_value: "inactive"
- molecule: "CC(C)CC(=O)NCCn1cc(C(=O)O)c(=O)cc1C(O)c1ccccc1 (stereo not given)"
  measured_property: "activity, negative = inhibition"
  assay_value: "inactive"
- molecule: "COC(=O)C1=COC(OC2OC(CO)C(O)C(O)C2O)C2C(COC(=O)/C=C/c3ccc(O)c(O)c3)C(O)C(O)C12 (stereo not given)"
  measured_property: "activity, negative = inhibition"
  assay_value: "inactive"
- molecule: "CC(C)C1C(OC(=O)/C=C/c2ccccc2)CC2(C)OC2CCC2(C)OC2C1O (stereo not given)"
  measured_property: "activity, negative = inhibition"
  assay_value: "inactive"
- molecule: "Cc1cn2cc(CC(=O)N3CCC4(CC3)CN(Cc3ccc(-n5nccn5)cc3Cl)C4)nc2s1"
  measured_property: "activity, negative = inhibition"
  assay_value: "inactive"
- molecule: "COc1cc(OC)cc(-c2ccc3c(-c4ccc(F)cc4)[nH]nc3n2)c1"
  measured_property: "activity, negative = inhibition"
  assay_value: "inactive"
- molecule: "CC[C@H](C)[C@H](NC(=O)[C@H](Cc1ccc(O)cc1)NC(=O)[C@@H](N)C(C)C)C(=O)N[C@@H](Cc1cnc[nH]1)C(=O)N1CCC[C@H]1C(=O)N[C@@H](Cc1ccccc1)C(=O)O"
  measured_property: "activity, negative = inhibition"
  assay_value: "2.76% [at 6.45 µM] (inactive)"
- molecule: "CC(C)c1ccc2c(c1)[C@H](O)CC1[C@@](C)(C(=O)O)CCC[C@]21C (stereo not given in full)"
  measured_property: "activity, negative = inhibition"
  assay_value: "inactive"
